- Tested on: MDA-MB-468 spheroids with HUVEC/MSC, viability
- test: Anticancer human tumor MDA-MB-468 cell line growth inhibition [PI3K]; active = viability on the fitted dose curve at most 10% of control; inactive = the rest;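 note: spheroids exposed to agents for seven days before readout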
- condition parameters: second compound 1 µM; first compound 10 µM
Field 'call' accepts true (active), false (inactive)

Example results:
compound="CCCS(=O)(=O)Nc1ccc(F)c(C(=O)c2c[nH]c3ncc(-c4ccc(Cl)cc4)cc23)c1F + CC(Nc1ccc2c(c1)OCCn1cc(N3C(=O)OCC3C(F)F)nc1-2)C(N)=O" assigned_category=false
compound="Cn1ncc(Cl)c1-c1cc(C(=O)NC(CN)Cc2cccc(F)c2)sc1Cl (stereo not given) + Cc1nc(NC(=O)N2CCCC2C(N)=O)sc1-c1ccnc(C(C)(C)C(F)(F)F)c1" assigned_category=true
compound="Cn1ncc(Cl)c1-c1cc(C(=O)NC(CN)Cc2cccc(F)c2)sc1Cl (stereo not given) + CC(Nc1ncnc2nc[nH]c12)c1cc2cccc(Cl)c2c(=O)n1-c1ccccc1" assigned_category=false
compound="CNC(=O)c1ccc(N2C(=S)N(c3ccc(C#N)c(C(F)(F)F)c3)C(=O)C2(C)C)cc1F + COc1c(OCCCN2CCOCC2)ccc2c3n(c(=NC(=O)c4cnc(N)nc4)nc12)CCN3" assigned_category=true
compound="CCCS(=O)(=O)Nc1ccc(F)c(C(=O)c2c[nH]c3ncc(-c4ccc(Cl)cc4)cc23)c1F + Cc1nc(NC(=O)N2CCCC2C(N)=O)sc1-c1ccnc(C(C)(C)C(F)(F)F)c1" assigned_category=false

Q: Look up the recorded call for C#Cc1c(F)ccc2cc(O)cc(-c3ncc4c(N5CC6CCC(C5)N6)nc(OCC56CCCN5CC(F)C6)nc4c3F)c12 (stereo not given) + COc1c(OCCCN2CCOCC2)ccc2c3n(c(=NC(=O)c4cnc(N)nc4)nc12)CCN3 in this test.
Result: true

Q: Here is the next compound: C=CC(=O)N1CCN(c2nc(=O)n(-c3c(C)ccnc3C(C)C)c3nc(-c4c(O)cccc4F)c(F)cc23)C(C)C1 (stereo not given) + COc1c(OCCCN2CCOCC2)ccc2c3n(c(=NC(=O)c4cnc(N)nc4)nc12)CCN3
Result: true

Q: Another compound to look at: CNC(=O)c1ccc(N2C(=S)N(c3ccc(C#N)c(C(F)(F)F)c3)C(=O)C2(C)C)cc1F + Cc1nc(NC(=O)N2CCCC2C(N)=O)sc1-c1ccnc(C(C)(C)C(F)(F)F)c1
Result: false

Q: Now the same for C[C@@H](NC(=O)c1ncnc(N)c1Cl)c1ncc(C(=O)Nc2cc(C(F)(F)F)c(Cl)cn2)s1 + COc1c(OCCCN2CCOCC2)ccc2c3n(c(=NC(=O)c4cnc(N)nc4)nc12)CCN3
Result: true

Q: And then Cn1nccc1Nc1nccc(-c2ccn(C(CO)c3ccc(Cl)c(F)c3)c(=O)c2)n1 (stereo not given) + COc1c(OCCCN2CCOCC2)ccc2c3n(c(=NC(=O)c4cnc(N)nc4)nc12)CCN3 , what is it?
Result: true

Q: Let us now turn to C#Cc1c(F)ccc2cc(O)cc(-c3ncc4c(N5CC6CCC(C5)N6)nc(OCC56CCCN5CC(F)C6)nc4c3F)c12 (stereo not given) + CC(Nc1ccc2c(c1)OCCn1cc(N3C(=O)OCC3C(F)F)nc1-2)C(N)=O
Result: false

Q: Let us now turn to CC(Cn1ccc(-c2ccc(C#N)c(Cl)c2)n1)NC(=O)c1cc(C(C)O)[nH]n1 (stereo not given) + CC(Nc1ccc2c(c1)OCCn1cc(N3C(=O)OCC3C(F)F)nc1-2)C(N)=O
Result: false

Q: Another compound: C[C@@H](NC(=O)c1ncnc(N)c1Cl)c1ncc(C(=O)Nc2cc(C(F)(F)F)c(Cl)cn2)s1 + Cc1nc(NC(=O)N2CCCC2C(N)=O)sc1-c1ccnc(C(C)(C)C(F)(F)F)c1
Result: false

Q: // query: CC(C)NCC(C(=O)N1CCN(c2ncnc3c2C(C)CC3O)CC1)c1ccc(Cl)cc1 (stereo not given) + COc1c(OCCCN2CCOCC2)ccc2c3n(c(=NC(=O)c4cnc(N)nc4)nc12)CCN3
Result: true

Q: Next: C=CC(=O)N1CCN(c2nc(=O)n(-c3c(C)ccnc3C(C)C)c3nc(-c4c(O)cccc4F)c(F)cc23)C(C)C1 (stereo not given) + CC(Nc1ccc2c(c1)OCCn1cc(N3C(=O)OCC3C(F)F)nc1-2)C(N)=O
Result: false

The reported numbers originate from PubChem BioAssay AID1963960.
